SYSTEM: hTLR8 (Homo sapiens, UniProt Q9NR97)
Sequence (Q9NR97 27-1041): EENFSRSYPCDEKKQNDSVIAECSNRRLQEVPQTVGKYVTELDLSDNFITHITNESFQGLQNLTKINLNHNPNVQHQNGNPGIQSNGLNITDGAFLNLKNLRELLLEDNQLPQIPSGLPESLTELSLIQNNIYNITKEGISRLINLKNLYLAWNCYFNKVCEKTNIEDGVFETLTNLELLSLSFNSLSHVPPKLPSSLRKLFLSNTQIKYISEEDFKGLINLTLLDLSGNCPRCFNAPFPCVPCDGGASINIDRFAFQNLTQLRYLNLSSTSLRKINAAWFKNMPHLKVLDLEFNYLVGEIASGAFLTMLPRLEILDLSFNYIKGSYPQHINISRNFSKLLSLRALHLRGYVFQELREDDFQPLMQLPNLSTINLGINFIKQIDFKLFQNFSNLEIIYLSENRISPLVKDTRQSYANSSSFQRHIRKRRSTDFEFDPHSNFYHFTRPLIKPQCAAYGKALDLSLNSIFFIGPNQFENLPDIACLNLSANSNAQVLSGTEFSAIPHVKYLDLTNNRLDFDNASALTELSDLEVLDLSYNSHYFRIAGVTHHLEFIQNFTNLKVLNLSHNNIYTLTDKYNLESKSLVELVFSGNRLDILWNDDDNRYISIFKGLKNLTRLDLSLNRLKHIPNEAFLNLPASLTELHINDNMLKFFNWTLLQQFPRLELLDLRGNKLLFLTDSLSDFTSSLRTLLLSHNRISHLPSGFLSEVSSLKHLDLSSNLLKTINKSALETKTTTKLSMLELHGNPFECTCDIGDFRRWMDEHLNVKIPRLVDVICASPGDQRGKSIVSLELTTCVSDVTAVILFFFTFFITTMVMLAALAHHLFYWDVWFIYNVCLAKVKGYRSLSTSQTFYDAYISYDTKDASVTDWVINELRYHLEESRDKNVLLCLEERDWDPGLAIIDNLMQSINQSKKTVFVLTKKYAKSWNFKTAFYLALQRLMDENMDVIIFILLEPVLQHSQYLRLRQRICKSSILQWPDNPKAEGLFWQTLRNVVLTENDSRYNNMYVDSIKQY
ASSAY_SUMMARY: SEAP reporter assay in HEK-Blue hTLR8 cells
OBSERVATION_TYPE: pIC50
Just so you know, pIC50 here is -log10 of the concentration in molar units; reply with that number alone.

// lookup pIC50 | system=hTLR8 (Homo sapiens, UniProt Q9NR97) | key= COc1ccc(C(=O)N2CCN(c3ccc([N+](=O)[O-])c4ncccc34)CC2)cc1 [Compound S4]
7.15

Entry to check: O=C(c1ccc(F)cc1)N1CCN(c2ccc([N+](=O)[O-])c3ncccc23)CC1 [Compound S7]
7.00

Entry to check: O=C(c1ccc(Cl)cc1)N1CCN(c2ccc([N+](=O)[O-])c3ncccc23)CC1 [Compound S1]
6.89

Entry to check: O=C(c1ccncc1)N1CCN(c2ccc([N+](=O)[O-])c3ncccc23)CC1 [Compound S14]
7.22

Entry to check: O=C(c1cccs1)N1CCN(c2ccc([N+](=O)[O-])c3ncccc23)CC1 [Compound S12]
7.22

Entry to check: O=[N+]([O-])c1ccc(-c2ccc(O)cc2)c2cccnc12 [Compound S15]
7.70

Entry to check: COc1ccccc1C(=O)N1CCN(c2ccc([N+](=O)[O-])c3ncccc23)CC1 [Compound S10]
7.22

Entry to check: O=C(c1ccc([N+](=O)[O-])cc1)N1CCN(c2ccc([N+](=O)[O-])c3ncccc23)CC1 [Compound S5]
6.82
